# measurement-target: Solute carrier organic anion transporter family member 1B1 (Homo sapiens, UniProt Q9Y6L6)
# Sequence (Q9Y6L6 whole entry): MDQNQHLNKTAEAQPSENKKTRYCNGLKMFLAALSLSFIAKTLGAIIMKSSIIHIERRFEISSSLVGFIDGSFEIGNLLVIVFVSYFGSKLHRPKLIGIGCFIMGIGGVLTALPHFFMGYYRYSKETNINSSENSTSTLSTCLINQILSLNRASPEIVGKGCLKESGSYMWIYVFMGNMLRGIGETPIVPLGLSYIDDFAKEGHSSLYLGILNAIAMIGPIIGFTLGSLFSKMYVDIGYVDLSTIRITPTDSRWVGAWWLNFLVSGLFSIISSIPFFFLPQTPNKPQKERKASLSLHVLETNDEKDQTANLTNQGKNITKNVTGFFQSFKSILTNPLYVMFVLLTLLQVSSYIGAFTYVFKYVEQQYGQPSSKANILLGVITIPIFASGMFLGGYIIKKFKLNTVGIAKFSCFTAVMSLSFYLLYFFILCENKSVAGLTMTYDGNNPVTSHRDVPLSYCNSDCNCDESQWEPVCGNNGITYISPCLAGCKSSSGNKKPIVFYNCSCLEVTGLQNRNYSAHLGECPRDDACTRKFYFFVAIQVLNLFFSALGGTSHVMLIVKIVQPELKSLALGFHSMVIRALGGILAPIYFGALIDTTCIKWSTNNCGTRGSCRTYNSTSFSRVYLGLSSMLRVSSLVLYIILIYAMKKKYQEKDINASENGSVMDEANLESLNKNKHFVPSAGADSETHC
# run-conditions: chinese hamster, cho, 10 µM
residual activity values for the molecules below.
# output: bare number, implied unit %

Consider the worked cases shown below.
{"molecule": "O=c1[nH]cnc2nc[nH]c12", "unit-descriptor": "%", "residual activity": 92.05}
{"molecule": "CN[C@@H]1[C@@H](O)[C@@H](O[C@@H]2[C@@H](O)[C@H](O[C@H]3O[C@H]([C@@H](C)O)[C@@H](O)[C@H](O)[C@H]3N)[C@@H](N)C[C@H]2N)OC[C@]1(C)O", "unit-descriptor": "%", "residual activity": 83.57}
{"molecule": "COc1c(-c2coc3cc4c(cc3c2=O)CC(OC(C)=O)C(C)(C)O4)ccc2c1C=CC(C)(C)O2 (stereo not drawn) [MUNDULONE ACETATE]", "unit-descriptor": "%", "residual activity": 71.78}
{"molecule": "CCCC(=O)Nc1ncnc2c1ncn2[C@@H]1O[C@@H]2COP(=O)(O)O[C@H]2[C@H]1OC(=O)CCC", "unit-descriptor": "%", "residual activity": 116}

Input: Quick check: residual activity of `CCCCCC/C=C\CCCCCCCc1cccc(O)c1C(=O)O` ?
Output: 135.9

Input: Check `COc1cc2c(c(OC)c1OC)-c1ccc(OC)c(=O)cc1[C@@H](NC(C)=O)CC2` too.
Output: 75.12

Input: Check `Oc1ncnc2[nH]ncc12` too.
Output: 68.8

Input: Check `COc1cc(OC)c(-c2c(OC)cc(OC)cc2OC)c(OC)c1` too.
Output: 117.5
